So I've got a bunch of molecules here, and I need their MIC values.
tested on: Mycobacterium tuberculosis; test: Antitubercular activity against Mycobacterium tuberculosis H37Rv ATCC 27294 using GAST/Fe medium after 1 week in presence of guanine by broth microdilution method; format: functional; settings: H37Rv ATCC 27294, 168 h
Give the number; µM is assumed, so skip it.

q: I'd like to know its MIC. The molecule in question is C[C@H](Oc1cccc(Cl)c1Cl)C(=O)Nc1ccc2oc(-c3ccc(/C(N)=N\O)cc3)nc2c1
a: 25

q: Now the molecule C[C@H](Oc1cccc(Cl)c1Cl)C(=O)Nc1ccc2oc(-c3ccc(C(=O)O)cc3)nc2c1
a: 5

q: Now the molecule C[C@H](Oc1cccc(F)c1F)C(=O)Nc1ccc2oc(-c3ccncc3)nc2c1
a: 6.3

q: Now the molecule C[C@H](Oc1cccc(F)c1F)C(=O)Nc1ccc2oc(-c3ccc(C#N)cc3)nc2c1
a: 6.3

q: Now the molecule COc1ccc(-c2nc3cc(NC(=O)[C@H](C)Oc4ccccc4C#N)ccc3o2)cc1
a: 6.3
